- Assay explanation: Primary qHTS for delayed death inhibitors of the malarial parasite plastid, 96 hour incubation
- Cond: P. falciparum luciferase reporter growth; series mostly up to 28.7 µM
Hit rate of the full screen: of about 320,000 compounds, about 22,000 (6.9%) were called active. Inconclusive results (about 27%) are left out. Calls follow the shape of the dose curve; as a rule, active = well fitted inhibition curve with a large enough effect; inconclusive = small, poorly fitted or top-dose-only effect, or another doubt; inactive = no such curve, though single readings can be large or run the other way. Only a selection was taken, and actives are over-represented in it overall.
Please answer using one outcome listed in 1 (yes) for active, 0 (no) for inactive

Some entries whose results are on file:
Molecule	Class assignment
C=CCOc1ccccc1NC(=O)CN1C(=O)CNC1=O	0 (no)
COc1ccc2nc(N3CCCC(O)C3)c(C#N)cc2c1 (configuration not stated)	0 (no)
O=C(O)c1ccccc1NC(=S)NC(NC(=O)c1ccccc1[N+](=O)[O-])C(Cl)(Cl)Cl (configuration not stated)	1 (yes)
O=C(CN1CCC(NC(=O)Nc2ccccc2)CC1)Nc1cccc([N+](=O)[O-])c1	0 (no)
CCOC(=O)CNC(=O)N1c2ccccc2Sc2ccccc21	0 (no)

## Input What outcome does the record of this test show for "Cc1ccc(C(=O)N/C(=C\c2cn(S(=O)(=O)N(C)C)c3ccccc23)C(=O)N2CCCC2)cc1" ?
## Output 0 (no)

## Input What outcome does the record of this test show for Cc1ccc(C(=O)OC(C)CN2CCOCC2)cc1 (configuration not stated) ?
## Output 1 (yes)

## Input What outcome does the record of this test show for "Cc1c(C)c2ccc(OCC(=O)N3CCC(C(=O)O)CC3)c(C)c2oc1=O" ?
## Output 0 (no)

## Input What outcome does the record of this test show for O=C1/C(=C/c2cccs2)SC(=S)N1C1CCS(=O)(=O)C1 (configuration not stated) ?
## Output 0 (no)

## Input What outcome does the record of this test show for "O=C(Nc1ccccc1[N+](=O)[O-])C1C(c2ccccc2)=C1c1ccccc1" ?
## Output 1 (yes)

## Input What outcome does the record of this test show for "C[C@@H]1O[C@@H](OC[C@H]2O[C@@H](Oc3c(-c4ccc(O)cc4)oc4cc(O)cc(O)c4c3=O)[C@H](O)[C@@H](O)[C@@H]2O)[C@H](O)[C@H](O)[C@H]1O" ?
## Output 0 (no)

## Input What outcome does the record of this test show for "Cc1ccc(Oc2nc3ccccc3n3c(C)nnc23)cc1" ?
## Output 0 (no)

====

- Assay explanation: Primary qHTS for delayed death inhibitors of the malarial parasite plastid, 96 hour incubation
- Cond: P. falciparum luciferase reporter growth; series mostly up to 28.7 µM
The whole screen tested about 320,000 compounds, of which about 22,000 (6.9%) were called active. Inconclusive results (about 27%) are left out. Calls follow the shape of the dose curve; as a rule, active = well fitted inhibition curve with a large enough effect; inconclusive = small, poorly fitted or top-dose-only effect, or another doubt; inactive = no such curve, though single readings can be large or run the other way. For the sample, actives were picked, then their nearest neighbours and some compounds at random.
Please answer using one outcome listed in active, inactive

Molecule	Class assignment
Cc1cc(C(=O)OCC(=O)Nc2ccccc2Cl)c(C)o1	inactive
CCSc1nnc(SCC(=O)NNC(=O)c2ccccc2F)s1	inactive
CN(C)N1C(N)=C(C#N)C(c2ccc(Br)cc2)C2=C1CCCC2=O (stereo not drawn)	active
COc1cc(NC(=O)CN2C(=O)NC(C)(c3ccc(OC(F)F)cc3)C2=O)cc(OC)c1OC (stereo not drawn)	inactive

## Input What outcome does the record of this test show for "Cc1cccc2cc(CN(Cc3cccs3)C(=S)NCc3ccco3)c(=O)[nH]c12" ?
## Output inactive

## Input What outcome does the record of this test show for NC1=C([N+](=O)[O-])C(c2ccccc2)C2=C(CCCC2=O)O1 (stereo not drawn) ?
## Output inactive

## Input What outcome does the record of this test show for N#CC1=C(N)N(c2ccccc2)C2=C(C(=O)CCC2)C1c1ccccc1 (stereo not drawn) ?
## Output active

## Input What outcome does the record of this test show for "O=C(CCS(=O)(=O)c1ccccc1)NC1CCCC1" ?
## Output inactive
